ASSAY PROTOCOL: qHTS assay to test for compound auto fluorescence at 535 nm (green) in HepG2 cells (AID 720675); note: % is set by controls: 0 for no effect and ±100 for the full control effect
RUN PARAMETERS: green autofluorescence 485/535 nm, 1 h; series mostly up to 91.3 µM
Active and inactive are the calls of the source. Calls come from the whole dose curve; as a rule, active = well fitted curve in the direction sought with a large enough effect in the repeat runs; inconclusive = weak or mixed curves; inactive = flat fitted curve, though single readings scatter.
METRIC: fluorescence, % of fluorescein control

Illustrative cases are given below, each with its answer.
COMPOUND	fluorescence, % of fluorescein control
O=Cc1ccc(F)c(Br)c1	inactive
CC/C=C\CCOC(=O)C(C)C	inactive
CC(=O)N[C@@H](CC(C)C)C(=O)O	inactive
O=C1CCCCCCCCCCC(=O)OCCO1	inactive

Would you mind giving fluorescence, % of fluorescein control for every compound in the list below?
1. CN1CCN(C2=Nc3ccccc3Oc3ccc(Cl)cc32)CC1
2. NC1=NCC2c3ccccc3Cc3ccccc3N12 (configuration not stated)
3. CN1CCN(c2c(F)cc3c(=O)c(C(=O)O)cn4c3c2SCC4)CC1
4. CCCCCCOc1ccc(N)cc1
5. CCOC(=O)[C@H](CCc1ccccc1)N[C@@H](C)C(=O)N1Cc2cc(OC)c(OC)cc2C[C@H]1C(=O)O
6. Cc1ccccc1C(=O)Nc1ccc(C(=O)N2CCCC(O)c3cc(Cl)ccc32)c(C)c1 (configuration not stated)
7. Oc1ccccc1C=NCc1ccccc1

-0.116% [at 18.6 µM] (inactive)
inactive
inactive
inactive
inactive
inactive
inactive

Sample `CCCCC(=O)O[C@]1(C(=O)CO)[C@H](C)C[C@H]2[C@@H]3CCC4=CC(=O)C=C[C@]4(C)[C@@]3(F)[C@@H](O)C[C@@]21C` — what was its fluorescence, % of fluorescein control? inactive
